# protocol.details: Solubility Test Method in fluorinated fluids
# Format: physicochemical
# settings: organic solvent or mixture, thermodynamic from solid; solvent PF-5052
measured.metric: solubility

{"compound": "Cc1cc(=O)oc2cc(OCCCCCN(C)S(=O)(=O)C(F)(F)C(F)(F)C(F)(F)C(F)(F)F)ccc12 [Molecule 8]", "observed.measurement": "4070 µg/mL"}

----------
# protocol.details: Solubility Test Method in fluorinated fluids
# Format: physicochemical
# settings: organic solvent or mixture, thermodynamic from solid; solvent HFE 7200

{"structure.smiles.string": "Cc1cc(=O)oc2cc(OCCCCCN(C)S(=O)(=O)C(F)(F)C(F)(F)C(F)(F)C(F)(F)F)ccc12", "solubility [µg/mL]": 1570}
